molecular target: BmaDAF-12 (Brugia malayi, UniProt A0A4E9F2L4, R841H); assay: cell-based
observable: pEC50
Answers are plain numbers, as −log10 of the molar value.

**Query** Report pEC50 for CC(CCCC(C)C1CCC2C3=CCC4CC(=O)CCC4(C)C3CCC21C)C(=O)O [Δ7-dafachronic acid, (25S)-Δ7-dafachronic acid] please.
**Result** 8.74

Source of measurements: paper PMC10313052
